Assay: Clearance in rat after iv administration
Type: ADME, organism-based
Conditions: in vivo
Flag rule - clearance less than 20 mL/min/kg flags Condition met; the remaining entries get Condition not met.

MOLECULE | CAT
CC(=N)N1CC[C@H](SC2=C(C(=O)O)N3C(=O)[C@H]([C@@H](C)O)[C@H]3C2)C1 | Condition not met
Cc1nc(=O)c(C#N)c(NCc2cccnc2)[nH]1 | Condition not met
O=[N+]([O-])O[C@H]1CO[C@H]2[C@@H]1OC[C@H]2O[N+](=O)[O-] [ISOSORBIDE DINITRATE] | Condition not met
CO/N=C(\C(=O)N[C@@H]1C(=O)N2C(C(=O)O)=C(CSc3nc(=O)c(=O)[nH]n3C)CS[C@H]12)c1csc(N)n1 | Condition met
NCC1(CC(=O)O)CCCCC1 | Condition met

## Task Consider CC[C@]1(O)C[C@@H]2CN(CCc3c([nH]c4ccccc34)[C@@](C(=O)OC)(c3cc4c(cc3OC)N(C)[C@H]3[C@@](O)(C(=O)OC)[C@H](OC(C)=O)[C@]5(CC)C=CCN6CC[C@]43[C@@H]65)C2)C1 . Does its clearance lie strictly below 20 mL/min/kg?
## Result Condition not met

###

Experiment: Volume of distribution at steady state in rat after iv administration
Type: ADME, organism-based
Conditions: in vivo
PARAMETER: Vdss (L/kg)
One number for each entry, in L/kg.

COMPOUND | Vdss (L/kg)
CO[C@@]1(NC(=O)CSCC#N)C(=O)N2C(C(=O)O)=C(CSc3nnnn3C)CS[C@@H]21 | 0.49
CC1=NC(=O)C(CCN(C(C)C)C(C)C)(c2ccccc2)C2CCCCN12 (stereo not given) [ACTISOMIDE] | 1.1
CC(C)n1c(/C=C/C(O)CC(O)CC(=O)O)c(-c2ccc(F)cc2)c2ccccc21 (stereo not given) | 1
Cn1c(=O)c2c(ncn2C)n(C)c1=O | 0.92
CC(C)NCC(O)COc1cccc2ccccc12 (stereo not given) | 5.3

The following compounds each have a reported value; give each one's Vdss.
1. Cc1c(C)c2c(c(C)c1O)CCC(C)(COc1ccc(CC3SC(=O)NC3=O)cc1)O2 (stereo not given)
2. C[C@@H](O)[C@H]1C(=O)N2C(C(=O)O)=C(S[C@@H]3CN[C@H](C(=O)N(C)C)C3)[C@H](C)[C@H]12
3. O=C1NC(=O)C(c2ccccc2)(c2ccccc2)N1
4. Cn1cc(/C=C2/C(=O)N3C(C(=O)O)=CS[C@H]23)nn1
5. O=C(O)C[C@H](NC(=O)CP(=O)(O)O)C(=O)O

## Result
1. 1
2. 0.3
3. 0.64
4. 1.3
5. 4.5

###

Kindly state log10(clearance) for each of the entries shown.
Assay: Clearance in rat after iv administration
Format: ADME, organism-based
Details: in vivo
Remember, log10 of clearance, in mL/min/kg.

Examples with answers:
COMPOUND | log10(clearance)
O=C(O)C[C@H](NC(=O)CP(=O)(O)O)C(=O)O | 1.72
COC(=O)[C@H]1[C@@H](OC(=O)c2ccccc2)C[C@@H]2CC[C@H]1N2C | 2.41
O=C(c1ccccc1)c1ccc2n1CCC2C(=O)O (stereo not given) | 0.56
CN1CCC[C@H]1c1cccnc1 | 1.82

Note: attention shifts to another entry.
## Task Look up log10(clearance) for this compound: Cc1cccnc1NS(=O)(=O)c1ccc(C#Cc2ccc(O)c(C(=O)O)c2)cc1
## Result 1.79

###

Kindly state clearance for each of the entries shown.
Assay: Clearance in dog after iv administration
Assay type: ADME, organism-based, Canis lupus familiaris
Details: in vivo
Answers are plain numbers, in mL/min/kg.

Examples with answers:
COMPOUND | PARAMETER | UNIT | ASSAY RESULT
NCC1(CC(=O)O)CCCCC1 | clearance | mL/min/kg | 2.3
CC(=N)N1CC[C@H](SC2=C(C(=O)O)N3C(=O)[C@H]([C@@H](C)O)[C@H]3C2)C1 | clearance | mL/min/kg | 4.9
Cc1cccnc1NS(=O)(=O)c1ccc(C#Cc2ccc(O)c(C(=O)O)c2)cc1 | clearance | mL/min/kg | 20

Note: attention shifts to another entry.
## Task Look up clearance for this compound: CC1(C)O[C@@H]2C[C@H]3[C@@H]4C[C@H](F)C5=CC(=O)C=C[C@]5(C)[C@H]4[C@@H](O)C[C@]3(C)[C@]2(C(=O)CO)O1 [FLUNISOLIDE]
## Result 12.9

###

Assay: Volume of distribution at steady state in dog after iv administration
Type: ADME, organism-based, Canis lupus familiaris
Conditions: in vivo, read-out: Vdss
Kindly state Vd for each of the entries shown.
Answers are plain numbers, in L/kg.

COMPOUND | Vd, L/kg
CO/N=C(\C(=O)N[C@@H]1C(=O)N2C(C(=O)O)=C(CSc3nc(C)c(CC(=O)O)s3)CS[C@H]12)c1csc(N)n1 | 0.26

The following compounds each have a reported value; give each one's Vd.
1. CC[C@H]1OC(=O)[C@H](C)[C@@H](O[C@H]2C[C@@](C)(OC)[C@@H](O)[C@H](C)O2)[C@H](C)[C@@H](O[C@@H]2O[C@H](C)C[C@H](N(C)C)[C@H]2O)[C@](C)(O)C[C@@H](C)C(=O)[C@H](C)[C@@H](O)[C@]1(C)O
2. Cc1cn([C@H]2C[C@H](N=[N+]=[N-])[C@@H](CO)O2)c(=O)[nH]c1=O
3. C[C@@H](O)[C@H]1C(=O)N2C(C(=O)O)=C(S[C@@H]3CN[C@H](C(=O)N(C)C)C3)[C@H](C)[C@H]12
4. O=C1CN=C(c2ccccc2Cl)c2cc([N+](=O)[O-])ccc2N1
5. Cc1nc(=O)c(C#N)c(NCc2cccnc2)[nH]1
6. CCC1(C)CC(=O)NC1=O (stereo not drawn) [ETHOSUXIMIDE]
7. Cc1cc(=O)n(-c2ccccc2)n1C [ANTIPYRINE]

## Result
1: 2.7; 2: 1; 3: 0.25; 4: 1.6; 5: 1.2; 6: 0.59; 7: 0.62

The following compounds each have a reported value; give each one's Vd.
1. CN1CCC[C@H]1c1cccnc1
2. N[C@H](C(=O)O)[C@@H]1CC(Cl)=NO1

## Result
3.3
0.5

###

Test: Volume of distribution at steady state in rat after iv administration
Format: ADME, organism-based
Conditions: in vivo
Respond with yes for Vdss values of 1 L/kg and above, no for values below.

As a guide, the following entries are already answered.
COMPOUND | CAT
COCCOC(=O)C1=C(C)NC(C)=C(C(=O)OC(C)C)C1c1cccc([N+](=O)[O-])c1 (configuration not stated) [NIMODIPINE] | no
NC(=O)c1cc[n+](COC[n+]2ccccc2/C=N/O)cc1 [HI-6] | no
Cc1cccc(C)c1NC(=O)NCCCNC(C)C | yes
CN1C(C(=O)Nc2nccs2)=C(O)c2ccccc2S1(=O)=O [SUDOXICAM] | no
CN(Cc1cnc2nc(N)nc(N)c2n1)c1ccc(C(=O)N[C@@H](CCC(=O)O)C(=O)O)cc1 [METHOTREXATE] | no

## Task State whether the measured Vdss reaches 1 L/kg, counting equality as reaching it, for CCC1(C)CC(=O)NC1=O (configuration not stated) [ETHOSUXIMIDE]
## Result no

## Task State whether the measured Vdss reaches 1 L/kg, counting equality as reaching it, for CC[C@H]1OC(=O)[C@H](C)[C@@H](O[C@H]2C[C@@](C)(OC)[C@@H](O)[C@H](C)O2)[C@H](C)[C@@H](O[C@@H]2O[C@H](C)C[C@H](N(C)C)[C@H]2O)[C@](C)(O)C[C@@H](C)C(=O)[C@H](C)[C@@H](O)[C@]1(C)O [ERYTHROMYCIN]
## Result yes

## Task State whether the measured Vdss reaches 1 L/kg, counting equality as reaching it, for O=P1(N(CCCl)CCCl)NCCCO1 (configuration not stated) [CYCLOPHOSPHAMIDE ANHYDROUS]
## Result no

## Task State whether the measured Vdss reaches 1 L/kg, counting equality as reaching it, for CN(C)CCCC1(c2ccc(F)cc2)OCc2cc(C#N)ccc21 (configuration not stated) [CITALOPRAM]
## Result yes

## Task State whether the measured Vdss reaches 1 L/kg, counting equality as reaching it, for COCCc1ccc(OCC(O)CNC(C)C)cc1 (configuration not stated) [METOPROLOL]
## Result yes

## Task State whether the measured Vdss reaches 1 L/kg, counting equality as reaching it, for CC1CCCC(C)N1CCCC(O)(c1ccccc1)c1ccccn1 (configuration not stated) [PIRMENOL]
## Result yes

## Task State whether the measured Vdss reaches 1 L/kg, counting equality as reaching it, for CC#CCC(C)[C@H](O)/C=C/[C@@H]1[C@H]2C/C(=C/CCCC(=O)O)C[C@H]2C[C@H]1O (some centres not stated) [ILOPROST]
## Result no

## Task State whether the measured Vdss reaches 1 L/kg, counting equality as reaching it, for CC(C)(C)S(=O)(=O)C[C@@H](Cc1ccccc1)C(=O)N[C@@H](Cc1cnc[nH]1)C(=O)N[C@@H](CC1CCCCC1)[C@@H](O)[C@@H](O)C1CC1
## Result yes
